In this section we review reported activity at 0.0005 µM values for a set of compounds.
- TARGET SYSTEM: C. elegans (N2) complex I (NADH:ubiquinone oxidoreductase) (Caenorhabditis elegans, UniProt P24887+Q93873+Q94360)
- Sequence (Q94360 17-199): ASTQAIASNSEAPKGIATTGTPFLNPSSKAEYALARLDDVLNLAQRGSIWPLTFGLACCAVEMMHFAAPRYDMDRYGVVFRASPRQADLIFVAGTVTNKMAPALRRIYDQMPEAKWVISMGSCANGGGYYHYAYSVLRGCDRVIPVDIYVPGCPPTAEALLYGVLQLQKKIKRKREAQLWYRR
- Sequence (P24887 whole entry): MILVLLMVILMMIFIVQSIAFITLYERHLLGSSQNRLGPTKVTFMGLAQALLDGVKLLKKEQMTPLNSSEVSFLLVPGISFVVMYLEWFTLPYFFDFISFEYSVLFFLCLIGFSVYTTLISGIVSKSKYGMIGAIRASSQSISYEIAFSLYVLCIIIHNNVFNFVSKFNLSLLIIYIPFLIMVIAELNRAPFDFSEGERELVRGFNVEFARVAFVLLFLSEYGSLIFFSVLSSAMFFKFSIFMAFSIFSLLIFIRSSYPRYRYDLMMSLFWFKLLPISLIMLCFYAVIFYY
- Sequence (Q93873 31-482): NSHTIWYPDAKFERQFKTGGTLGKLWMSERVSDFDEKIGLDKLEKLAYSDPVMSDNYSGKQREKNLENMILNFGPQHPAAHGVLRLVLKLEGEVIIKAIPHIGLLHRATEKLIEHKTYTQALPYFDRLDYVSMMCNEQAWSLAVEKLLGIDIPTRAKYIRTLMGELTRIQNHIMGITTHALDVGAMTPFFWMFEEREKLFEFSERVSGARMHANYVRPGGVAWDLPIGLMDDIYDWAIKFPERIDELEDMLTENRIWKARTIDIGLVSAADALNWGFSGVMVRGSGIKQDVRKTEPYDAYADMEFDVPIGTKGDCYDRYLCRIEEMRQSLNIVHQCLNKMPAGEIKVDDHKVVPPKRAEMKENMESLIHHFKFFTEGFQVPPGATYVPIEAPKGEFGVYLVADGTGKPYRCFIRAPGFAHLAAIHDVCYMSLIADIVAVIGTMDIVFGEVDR
- METHOD NOTES: biochemical
- Format: biochemical
- TEST SETTINGS: Dose 0.0005 µM; read-out: C. elegans mitochondrial complex I activity

COMPOUND	activity at 0.0005 µM
Clc1ccccc1OCCCCn1cnc2ccccc21	95.4%
Cc1ccc(C(C)C)c(OCC(O)Cn2cnc3ccccc32)c1 (stereo not drawn)	97.6%
Cc1ccc(SCCCCn2cnc3ccccc32)cc1	94.2%
Cc1ccc(CSCc2nc3ccccc3[nH]2)cc1	95.4%
FC(F)(F)c1cccc(OCCCCn2cnc3ccccc32)c1	105%
Clc1ccc(Cn2cnc3ccccc32)c(Cl)c1	104%
Cc1ccc(OCCn2cnc3ccccc32)cc1	96.5%
Cc1ccccc1OCCCn1c(C)nc2ccccc21	93.6%
Cc1ccc(OCCn2cnc3ccccc32)c(C)c1	107%
Cc1nc2ccccc2n1CCOc1ccccc1	84.9%
Cc1nc2ccccc2n1Cc1ccc(Cl)c(Cl)c1	92.1%
CCCn1c(COc2ccc(C)cc2)nc2ccccc21	103%
CCc1cc(OCCn2cnc3ccccc32)ccc1Cl	90.8%
CCCOc1ccc(Cn2cnc3ccccc32)cc1	94.7%
Clc1ccc(Cn2cnc3ccccc32)cc1Cl	92.7%
Cc1ccccc1OCCCCn1cnc2ccccc21	145%
Clc1ccc(OCCn2cnc3ccccc32)c(Cl)c1	97.1%
Nc1nc2ccccc2n1Cc1ccc(Cl)cc1	92.1%
Cc1cccc(OCCn2c(C)nc3ccccc32)c1	99.3%
Cc1ccc(SCCCn2cnc3ccccc32)cc1	95.5%
Nc1nc2ccccc2n1CCOc1ccc(Br)cc1	92.9%
